pIC50 values for the molecules below.
Test system: Plasmodium falciparum Dd2
protocol: Antiplasmodial pLDH assay, chloroquine-resistant strain Dd2
Format: cell-based
assay_setup: read-out: Plasmodium falciparum Dd2: IC50; CQ-resistant Dd2 strain; pLDH; triplicate; ten point dose response
// returns pIC50 (minus log10 of molar concentration), number only

Answered examples (3):
molecule	observable	measured
COc1cc2c(cc1OC)-c1c(OC)c(OC)cc3c1[C@H](C2)NCC3	pIC50	4.03
O[C@@H]1c2ccccc2-c2c3c(cc4c2[C@@H]1NCC4)OCO3	pIC50	3.96
C=C1C(=O)O[C@@H]2C3O[C@]3(C)CC/C=C(\C)C[C@@H](OC(C)=O)[C@@H]12 (stereo partly shown) [Compound 8, lipiferolide]	pIC50	5.12

Give its pIC50 value. Item: C=C1C(=O)O[C@H]2[C@H]1[C@H](OC(C)=O)CC(=C)[C@H](OO)CC[C@@]1(C)O[C@H]21 [Compound 7, peroxyferolide]
4.90

###

System: Chinese Hamster Ovarian (CHO) cell line
protocol: Cytotoxicity MTT assay
Assay type: cell-based
assay_setup: CHO cells; MTT; triplicate
observable: CHO Cell line (IC50) (µg/mL)
Value expressed in µg/mL; do not type the unit.

compound	CHO Cell line (IC50), µg/mL
C=C1C(=O)O[C@H]2[C@H]1[C@H](OC(C)=O)CC(=C)[C@H](OO)CC[C@@]1(C)O[C@H]21 [Compound 7, peroxyferolide]	3.2

Continue with the compound presented below.
Give its CHO Cell line (IC50) value. Item: C=C1C(=O)O[C@@H]2C3O[C@]3(C)CC/C=C(\C)C[C@@H](OC(C)=O)[C@@H]12 (stereo partly shown) [Compound 8, lipiferolide]
1.4
